Target: Luciferin 4-monooxygenase (Photinus pyralis) (UniProt P08659)
Sequence (P08659 whole entry, looked up): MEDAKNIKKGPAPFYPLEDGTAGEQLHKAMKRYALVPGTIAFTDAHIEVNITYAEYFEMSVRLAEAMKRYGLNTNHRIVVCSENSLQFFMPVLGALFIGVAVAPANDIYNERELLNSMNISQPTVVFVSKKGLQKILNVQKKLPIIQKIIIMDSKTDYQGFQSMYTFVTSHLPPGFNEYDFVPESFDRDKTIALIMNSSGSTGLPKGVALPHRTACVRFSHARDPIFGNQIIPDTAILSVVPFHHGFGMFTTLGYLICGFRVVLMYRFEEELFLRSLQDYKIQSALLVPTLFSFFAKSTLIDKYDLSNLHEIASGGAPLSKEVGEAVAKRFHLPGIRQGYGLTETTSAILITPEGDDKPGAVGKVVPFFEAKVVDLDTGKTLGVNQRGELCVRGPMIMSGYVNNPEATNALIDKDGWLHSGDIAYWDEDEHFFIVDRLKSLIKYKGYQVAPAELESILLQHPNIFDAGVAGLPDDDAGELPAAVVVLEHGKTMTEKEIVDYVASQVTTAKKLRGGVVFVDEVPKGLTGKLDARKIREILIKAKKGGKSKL
Test: Firefly luciferase inhibition profiling of diverse chemical library using quantitative high-throughput screening; further: nearly all actives have a fitted effect of over 65% in size
Settings: purified P. pyralis luciferase, luminescence, biochemical; series mostly up to 115 µM
The whole screen tested about 76,000 compounds, of which about 1,900 (2.5%) were called active. Another 5% or so got no clear call; they are omitted. The call rests on the fitted dose curve; in most records, active means well fitted inhibition curve with a large enough effect; inconclusive means small, poorly fitted or top-dose-only effect; inactive means flat fitted curve, though single readings scatter. The sample as a whole holds a higher share of actives than the screen did.
Outcomes: t = active, f = inactive

> print(dat)
                                    compound  assigned.category
 1  Cc1ccc(-c2nc(CNS(=O)(=O)C3CC3)[nH]c2-c2ccccn2)cc1                  f
 2                Cc1nccn1CC1(CNc2ccncn2)CC1                  f
 3  O=C(NCc1ccccc1)C1CCN(C(=O)c2ncn3c2COC(c2ccccc2)C3)CC1 (stereo unspecified)                  t
 4  COC(=O)c1cccc2nc([C@H]3CCN(Cc4ccccc4)C3)oc12                  f
 5  COc1ccc(-c2noc(-c3cccn3CC(=O)Nc3ccccc3)n2)cc1F                  f
 6  CC(=O)N1CCc2[nH]cnc2C12CCN(C(=O)C(C)Oc1ccccc1)CC2 (stereo unspecified)                  f
 7  CN1C(=O)CC(C(=O)O)C12CCN(CCc1ccccn1)CC2 (stereo unspecified)                  f
 8  C=CCN(C)C(=O)[C@@H](C)C1CC[C@@]2(C)Cc3sc(Nc4c(Cl)cccc4Cl)nc3[C@@H](C)[C@@H]2[C@H]1O (stereo partly specified)                  f
 9  COc1ccc(C2Cn3cnc(C(=O)N4CCC(C(=O)NC5CCCC5)CC4)c3CO2)cc1 (stereo unspecified)                  f
10  CN(CCc1cn[nH]c1)c1ccc(-c2nc(-c3ccccc3F)no2)cn1                  t
11  Oc1ccc(-c2ccc(-c3nc(CCc4ccccc4)no3)cn2)cc1                  f
12  COc1ccc(NC(=O)c2ccc(CN3C(=O)NC4(CCOCC4)C3=O)cc2)c(OC)c1                  f
13     Fc1ccc2oc([C@H]3CCN(C4CCOCC4)C3)nc2c1                  f
14  COc1ccc(CN2C(=O)CO[C@H](c3ccc(NC(=O)c4ccccc4OC)cc3)[C@H]2CO)cc1                  f
15  CCC(CC)C(=O)N1CCC(N2CCCC(C(=O)NCc3ccccc3)C2)CC1 (stereo unspecified)                  f
16  O=C(c1ccc2c(c1)OCO2)N1CCCC2(CN[S+](=O)([O-])c3ccccc3N2)C1 (stereo unspecified)                  f
17  Cc1cccc(CN2C[C@@H]3C(=O)N(Cc4ccc5c(c4)OCO5)C(=O)[C@@H]3C2)c1                  f
18  O=C(CCc1ccccc1)NCCn1cccc1-c1nc(-c2ccc3c(c2)OCO3)no1                  t
19  O=C(NCC1CC1)C1CCN(C(=O)c2ncn3c2COC(c2ccccc2)C3)CC1 (stereo unspecified)                  t
20    CC(C)CCN1CCC2(CC1)CC(=O)c1ccc(Cl)cc1O2                  t
21  O=C(Nc1cccc(F)c1)c1cc2n(n1)CC(c1ccc(Cl)cc1)OC2 (stereo unspecified)                  f

###

Biological target: Luciferin 4-monooxygenase (Photinus pyralis) (UniProt P08659)
Assay: Firefly luciferase inhibition profiling of diverse chemical library using quantitative high-throughput screening; further: nearly all actives have a fitted effect of over 65% in size
Settings: purified P. pyralis luciferase, luminescence, biochemical; series mostly up to 115 µM
Out of some 76,000 compounds screened, about 1,900 (2.5%) were called active. Not shown: some 5% with an inconclusive outcome. The call rests on the fitted dose curve; in most records, active means well fitted inhibition curve with a large enough effect; inconclusive means small, poorly fitted or top-dose-only effect; inactive means flat fitted curve, though single readings scatter. The sample holds actives, similar compounds and a random draw of the others, so the mix is not that of the screen.
Outcomes: yes (active), no (inactive)

> print(dat)
                                    molecule  assigned.category
 1  COc1ccc(C(=O)NCc2nnc3ccc(-c4ccc(C)cc4)nn23)cc1F                 no
 2    CC(=O)N1CCC(Cc2ccc(C(=O)NC3CC3)cc2)CC1                 no
 3  O=C(NC1CCCN(c2cc(-c3ccc(Cl)cc3)[nH]n2)C1)c1ccccc1F (configuration not stated)                 no
 4  COCCCN(CCC(=O)N1CCC(C)CC1)C(=O)c1cc(C)oc1C                 no
 5  CC(C)NC(=O)C1COC2(CCN(C(=O)c3ccccc3Cl)CC2)N1C(=O)c1ccccc1 (configuration not stated)                 no
 6  Cc1cccc(CN2CCc3nc(C(=O)Nc4ccc(Cl)cc4)oc3CC2)c1                 no
 7  c1ccc(CNC[C@H]2Cn3cc(-c4ccccc4)nc3CO2)cc1                yes
 8  N#Cc1ccc(CN2CCc3nc(C(=O)N4CCOCC4)oc3CC2)cc1                 no
 9  COc1ccc(CN2C[C@H]3CN(Cc4ccc(NC(C)=O)cc4)CCN3C2=O)cc1                 no
10  Cc1cc(C)cc(C(=O)NC2CCN(c3cc(-c4cccs4)[nH]n3)C2)c1 (configuration not stated)                 no
11  CC(C)NC(=O)N1CCN2C(=O)N(Cc3ccc(F)cc3)C[C@H]2C1                 no
12  COc1ccc(C(=O)N2CCC3(CC2)CC(OC)CCO3)cc1OC (configuration not stated)                 no
13  COc1ccc(-c2cc(N3CCCC(NC(=O)c4ccsc4)C3)n[nH]2)cc1 (configuration not stated)                yes
14  COc1ccc(-c2cc(N3CCC(NC(=O)c4cccc(C)c4)CC3)n[nH]2)cc1                 no
15  Cc1ccc([S+](=O)([O-])N2CCn3c(nn(-c4ccncc4)c3=O)C2)cc1                 no
16  O=C(NC1CCN(c2cc(-c3ccc(Cl)cc3)[nH]n2)C1)c1c[nH]c2ccccc12 (configuration not stated)                 no
17  O=C(NC1CCN(c2cc(-c3ccc(F)cc3)[nH]n2)C1)c1ccc2c(c1)OCO2 (configuration not stated)                 no
18  O=C(c1ccc2nc(-c3ccc(F)cc3)cn2c1)N1CCSCC1                 no
19  N#Cc1cc2c(nc1N1CCN(C3CCCC3)C(CCO)C1)CCCC2 (configuration not stated)                 no
20  Fc1ccc(CNC[C@H]2Cn3c(-c4ccc5c(c4)OCCO5)cnc3CO2)cc1                 no
21  Cn1cccc1C(=O)NC1CCN(c2cc(-c3ccccc3)[nH]n2)CC1                 no
22  Cc1ncoc1C(=O)N1CCCn2ccnc2C1c1ccccc1 (configuration not stated)                 no

###

Biological target: Luciferin 4-monooxygenase (Photinus pyralis) (UniProt P08659)
Assay: Firefly luciferase inhibition profiling of diverse chemical library using quantitative high-throughput screening; further: nearly all actives have a fitted effect of over 65% in size; further: potency means the concentration at half of the fitted maximal effect
Conditions: purified P. pyralis luciferase, luminescence, biochemical; series mostly up to 115 µM
In all, about 76,000 compounds went through this assay and about 1,900 (2.5%) were called active. Inconclusive results (about 5%) are left out. The sample as a whole holds a higher share of actives than the screen did.
endpoint: Potency

> print(dat)
                                    compound                           target.of.assay        meas.value
 1  Cc1ccccc1CN1CCOc2cc([S+](=O)([O-])N(C)C)ccc2C1  Luciferin 4-monooxygenase (Photinus pyralis) (UniProt P08659)          inactive
 2       Cn1cnnc1CC1CCN(c2nnnn2-c2ccccc2)CC1  Luciferin 4-monooxygenase (Photinus pyralis) (UniProt P08659)          inactive
 3  CCN1CCN(C(=O)C23CCCC=C2N(C2CCCC2)C(=O)CC3)CC1 (stereo not given)  Luciferin 4-monooxygenase (Photinus pyralis) (UniProt P08659)  39.8 µM (active)
 4  CC(C)CCN1C(=O)CC[C@]2(C(=O)N3CCN(CC(C)C)CC3)CCCC[C@@H]12  Luciferin 4-monooxygenase (Photinus pyralis) (UniProt P08659)          inactive
 5  CC(C)CN1CCN(C(=O)c2cc3c(s2)CCN(C(=O)c2ccc(Cl)cc2)C3)CC1  Luciferin 4-monooxygenase (Photinus pyralis) (UniProt P08659)          inactive
 6  COCCNC(=O)CCc1c(C)nn(-c2ccccc2)c1Oc1ccccc1F  Luciferin 4-monooxygenase (Photinus pyralis) (UniProt P08659)          inactive
 7  O=C(NCC1CN(Cc2ccccc2)CC12CN(c1ccccc1)C2)Nc1ccccc1 (stereo not given)  Luciferin 4-monooxygenase (Photinus pyralis) (UniProt P08659)          inactive
 8  Cn1cnc(S(=O)(=O)N2CCC(N(C(=O)C3CC3)C3CCOCC3)CC2)c1  Luciferin 4-monooxygenase (Photinus pyralis) (UniProt P08659)          inactive
 9  Cc1cccc(N2C(=O)CSC23CCN(C(=O)C2CCC2)CC3)c1  Luciferin 4-monooxygenase (Photinus pyralis) (UniProt P08659)          inactive
10  Cc1nn2c(c1-c1ccccc1C(C)C)N(C(=O)c1cccc(C#N)c1)CCC2  Luciferin 4-monooxygenase (Photinus pyralis) (UniProt P08659)          inactive
